Tested on: MOLM14 cells
Assay: Alarma Blue cell viability assay, MOLM14
Type: cell-based
Conditions: Homo sapiens, MOLM-14, 72 h, read-out: MOLM14 IC50
EXPERIMENTAL READOUT: pIC50
Reminder that pIC50 is minus the log10 of a molar concentration.

The compound identified as "C=CC(=O)Nc1cccc(Oc2nc(Nc3ccc(N4CCN(C)CC4)cc3)nc3ccoc23)c1" registered its pIC50 at 5.54
